All figures here come from BindingDB's records for doi:10.1016/j.ejmech.2014.07.015.

Residues, ends and D or L forms follow the SMILES beside them.
Here we list compounds with their recorded log10 of IC50 when tested on Angiotensin-converting enzyme (Homo sapiens).
Sequence (P12821 whole entry): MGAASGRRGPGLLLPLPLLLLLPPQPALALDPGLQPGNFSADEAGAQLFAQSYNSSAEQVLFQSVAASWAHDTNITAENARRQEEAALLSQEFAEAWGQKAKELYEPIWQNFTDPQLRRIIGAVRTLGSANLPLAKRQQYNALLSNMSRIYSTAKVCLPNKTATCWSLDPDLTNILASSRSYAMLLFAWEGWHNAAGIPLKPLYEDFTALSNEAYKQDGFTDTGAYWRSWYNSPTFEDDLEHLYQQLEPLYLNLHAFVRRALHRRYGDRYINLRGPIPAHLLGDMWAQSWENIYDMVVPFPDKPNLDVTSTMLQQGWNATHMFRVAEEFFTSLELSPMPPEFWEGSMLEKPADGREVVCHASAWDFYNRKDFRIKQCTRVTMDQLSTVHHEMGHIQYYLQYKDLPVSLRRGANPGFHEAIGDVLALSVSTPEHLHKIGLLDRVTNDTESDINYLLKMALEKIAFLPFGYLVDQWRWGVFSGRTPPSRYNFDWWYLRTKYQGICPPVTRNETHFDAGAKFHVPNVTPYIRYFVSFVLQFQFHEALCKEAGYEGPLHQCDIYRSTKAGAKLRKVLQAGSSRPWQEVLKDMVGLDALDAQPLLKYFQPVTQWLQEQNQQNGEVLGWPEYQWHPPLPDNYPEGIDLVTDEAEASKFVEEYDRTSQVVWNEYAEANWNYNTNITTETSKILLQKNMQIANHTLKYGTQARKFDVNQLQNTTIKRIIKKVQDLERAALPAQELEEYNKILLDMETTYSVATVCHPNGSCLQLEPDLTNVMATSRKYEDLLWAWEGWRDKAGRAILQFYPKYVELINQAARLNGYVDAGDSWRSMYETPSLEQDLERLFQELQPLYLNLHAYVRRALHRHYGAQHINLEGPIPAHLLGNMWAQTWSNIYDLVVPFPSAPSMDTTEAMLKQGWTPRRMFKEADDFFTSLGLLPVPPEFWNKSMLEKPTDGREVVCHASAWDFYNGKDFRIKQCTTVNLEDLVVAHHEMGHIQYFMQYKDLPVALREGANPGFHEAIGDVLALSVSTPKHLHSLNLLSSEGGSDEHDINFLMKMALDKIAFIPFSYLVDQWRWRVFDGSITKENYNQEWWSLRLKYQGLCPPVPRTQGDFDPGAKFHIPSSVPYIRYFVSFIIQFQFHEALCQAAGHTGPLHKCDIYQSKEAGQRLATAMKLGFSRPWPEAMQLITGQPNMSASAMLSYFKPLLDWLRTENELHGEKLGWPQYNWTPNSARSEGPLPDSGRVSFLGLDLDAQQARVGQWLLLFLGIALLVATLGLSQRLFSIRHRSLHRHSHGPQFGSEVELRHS
Recorded IC50 (log10, µM)

**Query** What value of log10 of IC50 has been recorded for this entry: CC(C)C[C@H](N)C(=O)N[C@@H](CCC(N)=O)C(=O)N1CCC[C@H]1C(=O)O [CHEBI:73270] (H-Leu-Gln-Pro-OH)
**Result** 0.28

**Query** Check CC(C)[C@H](N)C(=O)N[C@@H](Cc1ccc(O)cc1)C(=O)O [Ang(3-4)] (H-Val-Tyr-OH) too.
**Result** 1.20

**Query** Check N=C(N)NCCC[C@H](NC(=O)CN)C(=O)N1CCC[C@H]1C(=O)O (H-Gly-Arg-Pro-OH) too.
**Result** 1.30

**Query** Check CC[C@H](C)[C@H](N)C(=O)N[C@@H](CCC(=O)O)C(=O)N1CCC[C@H]1C(=O)O (H-Ile-Glu-Pro-OH) too.
**Result** 0.20

**Query** Check CC[C@H](C)[C@H](N)C(=O)N[C@@H](CCCCN)C(=O)N1CCC[C@H]1C(=O)O (H-Ile-Lys-Pro-OH) too.
**Result** 0.84

**Query** Check N[C@@H](CO)C(=O)N[C@@H](Cc1ccc(O)cc1)C(=O)O [CHEBI:73652] (H-Ser-Tyr-OH) too.
**Result** 1.82

**Query** Check CSCC[C@H](N)C(=O)N[C@@H](Cc1ccccc1)C(=O)O [CHEBI:74708] (H-Met-Phe-OH) too.
**Result** 1.65

**Query** Check CC(C)[C@H](N)C(=O)N[C@@H](CO)C(=O)N1CCC[C@H]1C(=O)O (H-Val-Ser-Pro-OH) too.
**Result** 1.00
